Test: Selectivity ratio Ki for PDE4D4 to Ki for PDE4B3
Note to self: use YES only for Ratio Ki readings below 50; a reading exactly at 50 still gets NO.

Quick check: does O=C(c1ccccn1)N1CCN(CCCNc2nnc(-c3cccc(F)c3)c3c2cc2ccccn23)CC1 have Ratio Ki under 50? NO

Quick check: does Clc1cccc(-c2nnc(NCCCN3CCN(c4ncccn4)CC3)c3cc4ccccn4c23)c1 have Ratio Ki under 50? YES

Quick check: does c1ccc(-c2nnc(NCCCN3CCN(c4ncccn4)CC3)c3cc4ccccn4c23)cc1 have Ratio Ki under 50? YES

Quick check: does Cc1cc2c(NCCCN3CCN(C(=O)c4ccccn4)CC3)nnc(-c3cccc([N+](=O)[O-])c3)c2n1C have Ratio Ki under 50? YES

Quick check: does O=C(c1ccccc1)N1CCN(CCCNc2nnc(-c3cccc(F)c3)c3c2cc2ccccn23)CC1 have Ratio Ki under 50? YES

Quick check: does Cc1cc2c(NCCCN3CCN(C(=O)c4cnccn4)CC3)nnc(-c3cccc([N+](=O)[O-])c3)c2n1C have Ratio Ki under 50? NO
